Numbers sourced from PubChem BioAssay (NCI).

Test system: NCI-H226 lung
Experiment: NCI-60 one-dose screen, 48 h
Details: 10 µM
About 83,000 compounds went through this panel and 20% of them were active in at least one assay; those are over-represented in the sample as a whole. Active and inactive are the calls of the source. The calls were made as follows: active = growth percent below 10; inactive = the rest. Starred links: 1 amine or outer side, 2 acyl side, 3 side chain; linkers in the order of their positions; H or OH if unused. Positions of bridges follow the written chain, without caps; N, C: chain ends. Non-standard residues stand in square brackets, D forms with d. Residues, ends and D or L forms follow the SMILES beside them. Chains are numbered I, II in the order given. Actinocin(9to1) = Cc1c2oc3c(C)ccc(C(=O)[*:1])c3nc-2c(C(=O)[*:2])c(N)c1=O; aThr = C[C@H](O)[C@H](N)C(=O)O; NMeV = CN[C@H](C(=O)O)C(C)C; Sar = CNCC(=O)O
Hi there, use one of these labels in your reply, thanks! active, inactive

[
  {
    "compound": "CN1CCN(c2ccc3nc(-c4ccc5nc(-c6ccc(O)cc6)[nH]c5c4)[nH]c3c2)CC1",
    "cat": "inactive"
  },
  {
    "compound": "CN(C)CCC(=O)c1c[nH]c2ccccc12",
    "cat": "inactive"
  },
  {
    "compound": "Cc1c2oc3c(C)ccc(C(=O)N[C@@H]4C(=O)N[C@H](C(C)C)C(=O)N5CCC[C@H]5C(=O)N(C)CC(=O)N(C)[C@@H](C(C)C)C(=O)O[C@H]4C)c3nc-2c(C(=O)N[C@@H]2C(=O)N[C@H](C(C)C)C(=O)N3CCC[C@H]3C(=O)N(C)CC(=O)N(C)[C@@H](C(C)C)C(=O)O[C@H]2C)c(N)c1=O (I: [aThr][dV]P[Sar][NMeV] / II: [aThr][dV]P[Sar][NMeV]; ester I:1-I:C, II:1-II:C; linker I:N-II:N via Actinocin(9to1))",
    "cat": "active"
  },
  {
    "compound": "S=c1[nH]nc(Cc2ccccc2)c(=S)[nH]1",
    "cat": "inactive"
  }
]

stdin: For CCCCCCCCCCCCCCCCCN , what call appears in the results of this test?
stdout: inactive

stdin: For O=C(/C(=C/c1ccccc1)CBr)c1ccccc1 , what call appears in the results of this test?
stdout: inactive

stdin: For CSc1ccc2c(c1)C(N1CCN(C)CC1)Cc1ccccc1S2 (configuration not stated) , what call appears in the results of this test?
stdout: inactive

====

Task for the reader: assign each of the following compounds its reported growth.
Tested on: HT29 colon
Assay: NCI-60 one-dose screen, 48 h (100 = growth as untreated, 0 = no growth, -100 = all killed)
Details: 10 µM
Compounds without any hit were thinned out: in the full panel of roughly 83,000, 20% have a hit. Active and inactive are the calls of the source. Rule for the calls: active = growth percent below 10; inactive = the rest. Starred links: 1 amine or outer side, 2 acyl side, 3 side chain; linkers in the order of their positions; H or OH if unused. Positions of bridges follow the written chain, without caps; N, C: chain ends. Non-standard residues stand in square brackets, D forms with d. Residues, ends and D or L forms follow the SMILES beside them. Chains are numbered I, II in the order given. Actinocin(9to1) = Cc1c2oc3c(C)ccc(C(=O)[*:1])c3nc-2c(C(=O)[*:2])c(N)c1=O; aThr = C[C@H](O)[C@H](N)C(=O)O; NMeV = CN[C@H](C(=O)O)C(C)C; Sar = CNCC(=O)O

Before answering, review these 6 worked examples.
[
  {
    "compound": "CSc1ccc2c(c1)C(N1CCN(C)CC1)Cc1ccccc1S2 (configuration not stated)",
    "reportedResult": "-15.9% (active)"
  },
  {
    "compound": "Cc1cnc(/C=N\\NC(N)=S)c2cccc(N)c12",
    "reportedResult": "35.8% (inactive)"
  },
  {
    "compound": "Cc1c2oc3c(C)ccc(C(=O)N[C@@H]4C(=O)N[C@H](C(C)C)C(=O)N5CCC[C@H]5C(=O)N(C)CC(=O)N(C)[C@@H](C(C)C)C(=O)O[C@H]4C)c3nc-2c(C(=O)N[C@@H]2C(=O)N[C@H](C(C)C)C(=O)N3CCC[C@H]3C(=O)N(C)CC(=O)N(C)[C@@H](C(C)C)C(=O)O[C@H]2C)c(N)c1=O (I: [aThr][dV]P[Sar][NMeV] / II: [aThr][dV]P[Sar][NMeV]; ester I:1-I:C, II:1-II:C; linker I:N-II:N via Actinocin(9to1))",
    "reportedResult": "-24.1% (active)"
  },
  {
    "compound": "Cc1cc(NCCCN(C)C)c2ccc3c(ccc4c(NCCCN(C)C)cc(C)nc43)c2n1",
    "reportedResult": "-50.9% (active)"
  },
  {
    "compound": "O=C(/C(=C/c1ccccc1)CBr)c1ccccc1",
    "reportedResult": "83.7% (inactive)"
  },
  {
    "compound": "CN(C)CCC(=O)c1c[nH]c2ccccc12",
    "reportedResult": "101% (inactive)"
  }
]

Now for the compound whose growth we want.
stdin: Please state recorded growth (tested on HT29 colon) of CN1CCN(c2ccc3nc(-c4ccc5nc(-c6ccc(O)cc6)[nH]c5c4)[nH]c3c2)CC1
stdout: 82.1% (inactive)
